Please go through the items and note down their growth.
# System: SF-539 CNS
# experimentalProtocol: NCI-60 one-dose screen, 48 h (100 = growth as untreated, 0 = no growth, -100 = all killed)
# runParameters: 10 µM unless noted
This is part of a sample that, as a whole, favours compounds with a hit. Of some 83,000 tested, about 20% had one in any assay. Calls of active or inactive are those of the source. Rule for the calls: active = growth percent below 10; inactive = the rest.

Solved cases below.
{"molecule": "C#CCOC(=O)C(N)CS (configuration not stated)", "growth": "86.6% (inactive)"}
{"molecule": "CCC(C)(O)CCC(C)(O)CC (configuration not stated)", "growth": "103% (inactive)"}

Would you be so kind as to report growth for each listed record?
1. S=c1nn[nH]n1C1CCCCC1
2. N#Cc1c[nH]n2ccnc12
3. O=C(O)c1ccc2c3ccc(C(=O)O)c4c(C(=O)O)ccc(c5ccc(C(=O)O)c1c25)c43
4. Nc1ccccc1SC1CC(=O)N(c2ccc(I)cc2)C1=O (configuration not stated)
5. CCN(CC)CCO/N=C1\CC(c2ccc(OC)c(OC)c2)Oc2ccccc21 (configuration not stated)
6. CC1CCC(=O)N1c1ccc(N)cc1 (configuration not stated)
7. CC(=O)/C(N=Nc1ccc(S(=O)(=O)c2ccc(N=N/C(C(C)=O)=C(/C)O)cc2)cc1)=C(\C)O
8. COc1ccc(/C=N/NC(N)=S)cc1

a:
1: 106% (inactive); 2: 104% (inactive); 3: 94.2% (inactive); 4: 89.6% (inactive); 5: 94.7% (inactive); 6: 99.8% (inactive); 7: 112% (inactive); 8: 103% (inactive)

# batch size: 2; output growth per entry
1. C/C(=C\c1ccccc1)C(O)C(=O)c1nc2ccc([N+](=O)[O-])cc2[nH]c1=O (configuration not stated)
2. CN(C)CC(CN(C)C)C(O)c1ccccc1 (configuration not stated)

a:
102% (inactive)
90.7% (inactive)

* * *

# Test system: NCI-H522 lung
# experimentalProtocol: NCI-60 one-dose screen, 48 h
# runParameters: 10 µM unless noted
Compounds without any hit were thinned out: in the full panel of roughly 83,000, 20% have a hit. Calls of active or inactive are those of the source. Rule for the calls: active = growth percent below 10; inactive = the rest.
Your reply should match one of these outcome classes. True for active, False for inactive

{"compound": "CC(=O)/C(N=Nc1ccc(S(=O)(=O)c2ccc(N=N/C(C(C)=O)=C(/C)O)cc2)cc1)=C(\\C)O", "assignedCategory": "False"}
{"compound": "CCNCc1ccccc1", "assignedCategory": "False"}
{"compound": "Nc1nc(-c2ccccn2)cc(-c2cc(-c3ccccn3)nc(N)n2)n1", "assignedCategory": "False"}
{"compound": "N#CC(=S)Nc1ccc(Cl)c(Cl)c1", "assignedCategory": "True"}
{"compound": "COc1cc2oc3cc(=O)cc4oc(-c5ccccc5)cc(c2c2c1CCC(c1ccccc1)O2)c43 (configuration not stated)", "assignedCategory": "False"}

q: Test call, this compound: N#Cc1c(N)nc2c(c(-c3ccc(Cl)cc3)nn2-c2ccccc2)c1C#N
a: False

q: Dear colleague, could you share the recorded outcome for COc1ccc(CCO)cc1 when you have a moment?
a: False

* * *

Assign growth to each entry below.
# System: NCI-H322M lung
# experimentalProtocol: NCI-60 one-dose screen, 48 h (100 = growth as untreated, 0 = no growth, -100 = all killed)
# runParameters: 10 µM unless noted
# Method: Growth inhibition of the NCI-H322M human Non-Small Cell Lung tumor cell line is measured as a screen for anti-cancer activity. Cells are grown in 96 well plates and exposed to the test compound for 48 hours. Compounds are tested at a single concentration, which is 10^-5 M for most compounds. The reported endpoint is percent growth (GI% or GIPRCNT), where numbers from 0 - 100% represent growth inhibition, and numbers from -100% - 0 represent cell death. […]
This is part of a sample that, as a whole, favours compounds with a hit. Of some 83,000 tested, about 20% had one in any assay.
Numbers only, in %.

Use the examples below as a reference point.
{"compound": "CC(=O)Nc1cscc1NC(C)=O", "resultUnit": "%", "growth": 80.1}
{"compound": "CN1C2C=CC(=O)C1C1C(=O)N(c3ccccc3)C(=O)C12 (stereo not drawn)", "resultUnit": "%", "growth": 98.4}
{"compound": "COc1ccc(COC=O)cc1", "resultUnit": "%", "growth": 99.1}
{"compound": "Cn1c(-c2ccccc2)cc(=O)cc1-c1ccccc1", "resultUnit": "%", "growth": 97}
{"compound": "Cc1c(Cl)cc(Cl)c(N)c1Cl", "resultUnit": "%", "growth": 115}

Hi! Can you tell me growth for each of these compounds?
1. CCOP(=O)(OCC)/C(C#N)=C/c1c(C)[nH]c2ccccc12
2. CC1CCC(=O)N1c1ccc(N)cc1 (stereo not drawn)
3. COc1ccc(CCNC(=S)NN)cc1OC
4. O=C(c1ccc(Cl)cc1)C1C(c2ccccc2)C1[N+](=O)[O-] (stereo not drawn)

a:
1. 107
2. 96.4
3. 108
4. 89.8

Hey, quick one: what's growth for each of these?
1. COc1ccc2nccc(Cl)c2c1
2. Nc1ccc(Cl)c(S(=O)(=O)O)c1
3. Cc1c(O)nc(N)[nH]c1=O

a:
1: 97.1; 2: 89.2; 3: 104

* * *

# Test system: HS 578T breast
# experimentalProtocol: NCI-60 one-dose screen, 48 h (100 = growth as untreated, 0 = no growth, -100 = all killed)
# runParameters: 10 µM unless noted
About 83,000 compounds went through this panel and 20% of them were active in at least one assay; those are over-represented in the sample as a whole.
Hi there, I'd appreciate the recorded growth for every entry that follows.
Numbers only, in %.

Here's what some known entries look like.
{"compound": "O=C(c1ccncc1)c1c(Cc2ccccc2)ccc2ccccc12", "resultUnit": "%", "quantitativeReadout": 95.3}
{"compound": "COc1ccc2nccc(Cl)c2c1", "resultUnit": "%", "quantitativeReadout": 103}
{"compound": "CNc1ccc(Cl)cc1S(=O)(=O)c1ccccc1[N+](=O)[O-]", "resultUnit": "%", "quantitativeReadout": 96.7}
{"compound": "CCC(C)(O)CCC(C)(O)CC (configuration not stated)", "resultUnit": "%", "quantitativeReadout": 108}
{"compound": "COCCCNC1=C(C#N)C(=O)NC(c2cccs2)S1 (configuration not stated)", "resultUnit": "%", "quantitativeReadout": 112}

Hi team, please reply with growth for each item in this list.
1. COc1ccc(/C=N/Nc2nc3ccccc3s2)cc1
2. CCCC(=O)Oc1ccc2ccccc2c1
3. Cc1nc(Nc2ccc(Cl)cc2)c2cnn(-c3ccccc3)c2n1
4. Clc1ccc2c(c1)N(C1CCCN(Cc3ccccc3)C1)c1ccccc1S2 (configuration not stated)
5. O=C1C2=C(Nc3cc(Cl)ccc3N2)OC1c1c[nH]c2ccc(COc3ccccc3)cc12 (configuration not stated)
6. CCOC(=O)c1ccc(C(=N)N)cc1

a:
105
92.7
97.9
14.4
29.6
73.8

For each of the items listed, what is its growth?
1. CCN(CC)CCO/N=C1\CC(c2ccc(OC)c(OC)c2)Oc2ccccc21 (configuration not stated)
2. Cc1c(Cl)c(C)c(Cc2c(C)c(Cl)c(C)c(Cl)c2O)c(O)c1Cl
3. CCCC(=O)OCC(COC(=O)CCC)OC(=O)CCC
4. OCc1cccc(F)c1
5. CCOC(C)=N

a:
1. 90.3
2. 12.1
3. 98.6
4. 124
5. 150

Each compound below has a recorded value; state its growth.
1. CCOc1ccc(/C=C\C(=O)O)cc1
2. CCCC(=O)Oc1ccc(CC)cc1
3. Nc1nc(=S)c2[nH]cnc2[nH]1
4. O=C(c1ccccc1)C1(Br)CCCCC1
5. COC(=O)c1nc(=S)[nH]c(C(=O)OC)c1C(=O)c1ccc(OC)cc1

a:
1: 112; 2: 113; 3: 54.1; 4: 97.3; 5: 76.1

Provide each entry's growth from the list below.
1. OCCSc1ccc(Cl)cc1
2. CCCCCCC(C)CC1=C(O)c2ccccc2C(=O)C1=O (configuration not stated)
3. CCCCC/C(C)=N\NC(N)=S
4. CC(C)(C)C1=CC(=O)C(C(C)(C)C)=CC1=O
5. O=C1c2ccccc2C(c2ccccc2)C1c1ccccc1 (configuration not stated)
6. O=C1C=CC(n2cc(F)c(=O)[nH]c2=O)O1 (configuration not stated)

a:
1. 101
2. 75.3
3. 87.6
4. 104
5. 106
6. 90.9

* * *

# Test system: NCI-H23 lung
# experimentalProtocol: NCI-60 one-dose screen, 48 h (100 = growth as untreated, 0 = no growth, -100 = all killed)
# runParameters: 10 µM unless noted
Compounds without any hit were thinned out: in the full panel of roughly 83,000, 20% have a hit.
I'd be grateful if you could share measured growth for these entries.
Answers are plain numbers, in %.

Sample answers from the record:
{"molecule": "O=C(O)C#Cc1ccc(Cl)cc1", "studyTarget": "NCI-H23 lung", "growth (%)": 109}
{"molecule": "O=C(c1ccc(Cl)cc1)C1C(c2ccccc2)C1[N+](=O)[O-] (configuration not stated)", "studyTarget": "NCI-H23 lung", "growth (%)": 84.6}
{"molecule": "COc1ccc(/C=N/Nc2nc3ccccc3s2)cc1", "studyTarget": "NCI-H23 lung", "growth (%)": 105}
{"molecule": "C/C(CC(C)C)=N/NC(N)=S", "studyTarget": "NCI-H23 lung", "growth (%)": 88.8}
{"molecule": "Nc1nc(-c2ccccn2)cc(-c2cc(-c3ccccn3)nc(N)n2)n1", "studyTarget": "NCI-H23 lung", "growth (%)": 103}
{"molecule": "Nc1ccc(Cl)c(S(=O)(=O)O)c1", "studyTarget": "NCI-H23 lung", "growth (%)": 97}

Record growth per entry; entries follow.
1. CC1CC(O)CC(C)(C)C1.CC1CC(O)CC(C)(C)C1.CC1CC(O)CC(C)(C)C1.CC1CC(O)CC(C)(C)C1.[Ti] (configuration not stated)
2. Clc1ccc2c(c1)N(C1CCCN(Cc3ccccc3)C1)c1ccccc1S2 (configuration not stated)
3. Clc1ccc2sc(-c3ccccc3)nc2c1

a:
1. 104
2. 61.9
3. 101
